# Test system: EKVX NSCLC
# Procedure Text: NCI-60 one-dose screen, 48 h
# Condition: 10 µM unless noted
The panel holds about 83,000 compounds, 20% with a hit somewhere; the sample as a whole holds those more often. Calls of active or inactive are those of the source. How the source made its calls: active means growth percent below 10; inactive means the rest.
Answer with one of the outcomes active, inactive

>>> category_label("Cc1ccc(NC2CC(=O)N(c3c(C)cc(C)cc3C)C2=O)c(C)c1 (configuration not stated)")
"inactive"
>>> category_label("Cc1nn(-c2ccc(Cl)cc2)c(=O)n1CCn1cnc2ccccc21")
"inactive"
>>> category_label("CC(C)=CCC[C@](C)(O)[C@H]1CC[C@]2(C)[C@@H]1CC[C@@H]1[C@@]3(C)C/C(=C/c4cccc([N+](=O)[O-])c4)C(=O)C(C)(C)[C@@H]3CC[C@]12C")
"inactive"
>>> category_label("CC(=O)Cc1nsc(NC(=O)c2ccoc2COc2ccccc2)n1")
"inactive"
>>> category_label("Cc1cc(N2CCN(C)CC2)nc(N(CCNc2ccnc3cc(Cl)ccc23)Cc2ccco2)n1")
"inactive"

Ask | Test call for this compound, please: C/C(=C(/c1ccccc1)c1ccc(N2C(=O)c3cccc4c(NCc5ccccc5)ccc(c34)C2=O)cc1)c1ccccc1
Reply | inactive

Ask | Please indicate how the test categorized CN(C)c1ccc(C(=O)c2ccc(N(C)C)c(N)c2)cc1N .
Reply | inactive

Ask | Can you look up the reported call for N#Cc1cnc2cc(OC[C@@H](O)CO)c(NC(=O)C3CCCC3)cc2c1Nc1ccc(OCc2cccc(F)c2)c(Cl)c1 for me?
Reply | active

* * *

# System: DU-145 prostate
# Procedure Text: NCI-60 one-dose screen, 48 h (100 = growth as untreated, 0 = no growth, -100 = all killed)
# Condition: 10 µM unless noted
Compounds without any hit were thinned out: in the full panel of roughly 83,000, 20% have a hit.
Measurement Kind: growth (%)
State just the number; it will be interpreted in %.

Previously resolved entries follow.
>>> result_number("CN1CCN(CCOc2ccc(-c3cnc4c(-c5ccccc5F)cnn4c3)cc2)CC1")
60.9
>>> result_number("NCCn1cc(-c2nc(-c3c[nH]c4ncccc34)cs2)c2cc(F)ccc21")
93.9
>>> result_number("C[C@H]1[C@@H]2[C@H]3CC[C@@H]4[C@@]5(C)Cc6c([nH]c7ccccc67)C(C)(C)[C@@H]5CC[C@@]4(C)[C@]3(C)CC[C@]23CO[C@]1(C)[C@@H](C(=O)/C=C/c1ccccn1)C3")
102
>>> result_number("O=S(=O)(NCCCNc1cc(-c2cn(-c3ccccc3)nc2-c2cccc(O)c2)ccn1)c1ccc(F)cc1")
59.5
>>> result_number("COc1ccc(-c2n/c(=C\\c3c(O)[nH]c4ccc(OC)cc34)cc3c2=Nc2ccccc2-3)cc1")
-2.21

Next, consider the following compound.
Ask | Given the entry CC(=O)O[C@H]1CC[C@]2(C)[C@H]3CC=C4[C@@H]5[C@H](C)[C@@H](C)CC[C@]5(C(=O)NCCNCCNCCN)CC[C@@]4(C)[C@]3(C)CC[C@H]2C1(C)C , report its measured growth.
Reply | 89.8

* * *

# Tested on: HOP-62 NSCLC
# Procedure Text: NCI-60 one-dose screen, 48 h (100 = growth as untreated, 0 = no growth, -100 = all killed)
# Condition: 10 µM unless noted
The panel holds about 83,000 compounds, 20% with a hit somewhere; the sample as a whole holds those more often.
Measurement Kind: growth (%)
Only the number, expressed in %, is required.

>>> result_number("C=CC(=O)N[C@H](Cc1ccc(-c2cc(Cl)cc(Cl)c2)cc1)[C@H](O)[C@@H](O)C(=O)O")
87.3
>>> result_number("Fc1ccc2c(c1)c(-c1nc(-c3c[nH]c4ncccc34)cs1)cn2CCCN1CCCCC1")
65.3
>>> result_number("C/C(=N\\NC(=O)C(C)SC(C)C(=O)N/N=C(\\C)c1cccnc1)c1cccnc1 (stereo unspecified)")
106
>>> result_number("C=C(C)[C@@H]1CC[C@]2(C(=O)NNC(=O)c3cccnc3)CC[C@]3(C)[C@H](CC[C@@H]4[C@@]5(C)CCCNC(C)(C)[C@@H]5CC[C@]43C)[C@@H]12")
84.9
>>> result_number("CCC1C(=O)COC1=O (stereo unspecified)")
77.1

// next entry
Ask | Which growth is listed for COc1cccc(-c2nn(-c3ccccc3)cc2-c2ccnc(NCCNS(=O)(=O)c3ccc(C(F)(F)F)cc3)c2)c1 ?
Reply | 35.6
